FYI, the data here is from patent US20050261290A1.

- target-of-assay: human 11b-hsd-1 (Homo sapiens)
- measurement-description: Inhibition constant Ki of human 11b-hsd-1 (3H-cortisone to 3H-cortisol conversion, HPLC)
- Format: biochemical
- applied-conditions: apparent Ki, human 11b-hsd-1; read-out: Ki app
Ki strictly under 2 nM means met; at 2 nM or over means not met.

## Input Please check: Ki for CC1(C)CC(NC(=O)C2COCCN2CC2CCCC2)CC(C)(C)C1 (stereo not drawn) [Example 190] , strictly under 2 nM or not?
## Output met

## Input Here is the next compound: O=C(NC12CC3CC(CC(C3)C1)C2)C1COCCN1CC1CCCC1 (stereo not drawn) [Example 183]
## Output not met

## Input Here is the next compound: O=C(NC12CC3CC(CC(C3)C1)C2)[C@H]1CCCN1CC1CCCCC1 [Example 9]
## Output met

## Input Here is the next compound: CN(Cc1ccc(F)cc1)C(=O)[C@H]1COCCN1Cc1ccc(C#N)cc1 [Example 36]
## Output not met

## Input Here is the next compound: O=C(NC1C2CC3CC(C2)CC1C3)[C@H]1C[C@@H](O)CN1CC1CCCC1 (stereo partly drawn) [Example 28]
## Output met

## Input Here is the next compound: CCC(C)N1CCC[C@@H]1C(=O)NC1CCCCC1 (stereo partly drawn) [Example 105]
## Output not met

## Input Here is the next compound: CC(C)CN1CCC[C@@H]1C(=O)NCC1(O)CCCCC1 [Example 69]
## Output not met

## Input Here is the next compound: O=C(NC12CC3CC(CC(C3)C1)C2)[C@H]1CCCN1CC(F)(F)F [Example 22]
## Output met

----------
Provide the reported inhibition at 0.1 µM of each item.
- target-of-assay: human 11b-hsd-1 (Homo sapiens, UniProt P28845)
- Sequence (P28845 whole entry): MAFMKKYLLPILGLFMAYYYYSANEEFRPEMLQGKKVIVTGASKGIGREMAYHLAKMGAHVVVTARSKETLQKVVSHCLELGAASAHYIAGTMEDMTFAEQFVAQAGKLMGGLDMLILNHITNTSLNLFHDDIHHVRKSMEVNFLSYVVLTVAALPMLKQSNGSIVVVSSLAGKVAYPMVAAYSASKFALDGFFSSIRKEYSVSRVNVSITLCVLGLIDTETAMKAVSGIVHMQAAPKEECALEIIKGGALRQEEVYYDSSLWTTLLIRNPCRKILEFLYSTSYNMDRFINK
- measurement-description: Inhibition constant Ki of human 11b-hsd-1 (3H-cortisone to 3H-cortisol conversion, HPLC)
- Type: biochemical
- applied-conditions: compound at 0.1 μM
State the result as a value with its unit after it.

## Input Looking for the measured inhibition at 0.1 µM of O=C(NC1C2CC3CC(C2)CC1C3)[C@H]1C[C@@H](O)CN1CC1CCCC1 (stereo partly shown) , can you help?
## Output 100%

## Input Here is the next compound: O=C(NCc1ccc(Cl)cc1)[C@H]1CCCN1CC1CCCCC1
## Output 85%

## Input Here is the next compound: CCCN1CCC[C@@H]1C(=O)NC1CCCCC1C (stereo partly shown)
## Output 100%

## Input Here is the next compound: C[C@H](N)CN1CCC[C@@H]1C(=O)NC1C2CC3CC(C2)CC1C3 (stereo partly shown)
## Output 100%

## Input Here is the next compound: O=C(NC1CCCCC1)[C@H]1CCCN1CCC(F)(F)F
## Output 100%

## Input Here is the next compound: CCCN1CCC[C@@H]1C(=O)N[C@@H]1C[C@H]2CC[C@@H]1C2
## Output 92%

## Input Here is the next compound: CS(=O)(=O)N1CCC[C@@H]1CN1CCC[C@@H]1C(=O)NC1C2CC3CC(C2)CC1C3 (stereo partly shown)
## Output 96%

----------
- target-of-assay: UniProt P28845
- measurement-description: Inhibition constant Ki of human 11b-hsd-1 (3H-cortisone to 3H-cortisol conversion, HPLC)
- Format: biochemical
- applied-conditions: 0.1 μM compound
value-kind: inhibition at 0.1 µM (%)
Write the number in % without appending the unit.

## Input Looking for the measured inhibition at 0.1 µM of O=C(NC1C2CC3CC(C2)CC1C3)[C@@H]1C[C@H](Oc2cccc(C(F)(F)F)c2)CN1 (stereo partly shown) , can you help?
## Output 100

## Input Here is the next compound: O=C(NC1CCCCC1)[C@@H]1C[C@H](Oc2ccc(Cl)c(F)c2)CN1
## Output 91.8

## Input Here is the next compound: O=C(NCc1ccc(F)cc1)[C@H]1CCCN1CC1CC1
## Output 86.2

## Input Here is the next compound: O=C(NC1CCCCC1)[C@@H]1C[C@H](Oc2ccc(Cl)cc2)CN1
## Output 88.7

## Input Here is the next compound: O=C(NC1C2CC3CC(C2)CC1C3)[C@H]1NCC[C@@H]1C1CCCC1 (stereo partly shown)
## Output 97.5

## Input Here is the next compound: N#Cc1ccc(CN2CCC[C@@H]2C(=O)NCC2CCCCC2)cc1
## Output 100

## Input Here is the next compound: CC(C)CN1CCC[C@@H]1C(=O)NC(C)c1ccc(F)cc1 (stereo partly shown)
## Output 96.2

## Input Here is the next compound: Cc1cccc(CNC(=O)[C@H]2CCCN2CC(C)C)c1
## Output 90.1

## Input Here is the next compound: O=C(NC1C2CC3CC(C2)CC1C3)[C@@H]1C[C@H](Oc2cc(F)c(F)c(F)c2)CN1 (stereo partly shown)
## Output 100

## Input Here is the next compound: O=C(NC12CC3CC(CC(C3)C1)C2)[C@H]1CCCC[C@H]1NCc1ccc(Cl)cc1 (racemic)
## Output 100

## Input Here is the next compound: O=C(NCc1c(F)cccc1F)[C@H]1CCCN1Cc1ccc(Cl)cc1
## Output 87.1

## Input Here is the next compound: O=C(NCc1ccc(F)cc1F)[C@H]1CCCN1Cc1ccc(Cl)cc1
## Output 84.9

## Input Here is the next compound: O=C(NCc1cccc(F)c1)[C@H]1CCCN1CC1CCCC1
## Output 76.3

## Input Here is the next compound: O=C(NCc1ccc(F)cc1)[C@H]1CCCN1CC1CCCC1
## Output 89.3

## Input Here is the next compound: CC[C@H]1CCN[C@@H]1C(=O)NC1C2CC3CC(C2)CC1C3 (stereo partly shown)
## Output 76.5

## Input Here is the next compound: O=C(NC1C2CC3CC(C2)CC1C3)[C@H]1NCC[C@@H]1Cc1ccc(F)cc1 (stereo partly shown)
## Output 96.4

## Input Here is the next compound: CC(C)CN1CSC[C@H]1C(=O)N(C)C1CCCCC1
## Output 100

## Input Here is the next compound: COc1ccccc1CNC(=O)[C@H]1CCCN1CCC(F)(F)F
## Output 77.5

## Input Here is the next compound: COc1ccccc1CNC(=O)[C@H]1CCCN1CCc1ccccc1
## Output 77.8

----------
- target-of-assay: human 11b-hsd-1 (Homo sapiens)
- measurement-description: Inhibition constant Ki of human 11b-hsd-1 (3H-cortisone to 3H-cortisol conversion, HPLC)
- Assay type: biochemical
- applied-conditions: apparent Ki, human 11b-hsd-1; read-out: Ki app
Provide the reported Ki of each item.
State the result as a value with its unit after it.

## Input Looking for the measured Ki of O=C(NC1CCCCC1)[C@H]1CCCN1CC(F)(F)F , can you help?
## Output 5 nM

## Input Here is the next compound: CCN1CCC[C@@H]1C(=O)NC1CCCCC1C (stereo partly drawn)
## Output 28 nM

## Input Here is the next compound: COC(C)(C)CN1CCC[C@@H]1C(=O)NC1CCCCC1
## Output 7 nM

## Input Here is the next compound: CN(C(=O)C1COCCN1CC1CCCCC1)C1CCCCC1 (stereo not drawn)
## Output 32 nM

## Input Here is the next compound: CCOc1ccccc1CNC(=O)[C@H]1CCCN1CC1CCCC1
## Output 13.2 nM

## Input Here is the next compound: CCCN1CCC[C@@H]1C(=O)N[C@@H]1CCCc2ccccc21
## Output 8 nM

## Input Here is the next compound: O=C(NC1C2CC3CC(C2)CC1C3)[C@H]1C[C@@H](O)CN1Cc1ccccc1 (stereo partly drawn)
## Output 1 nM

## Input Here is the next compound: CC(C)CN1CCOC[C@@H]1C(=O)N(C)Cc1ccc(F)cc1
## Output 39.3 nM

## Input Here is the next compound: CCCN1CCCC1(C)C(=O)NC1CCCCC1 (stereo not drawn)
## Output 25 nM

## Input Here is the next compound: CC(C)CN1CCOC[C@@H]1C(=O)NCc1ccc(F)cc1
## Output 18 nM

## Input Here is the next compound: CC1(C)CC(NC(=O)C2COCCN2Cc2cccc(OC(F)F)c2)CC(C)(C)C1 (stereo not drawn)
## Output 1.1 nM

## Input Here is the next compound: Cc1ncccc1CNC(=O)[C@H]1CCCN1CC(C)C
## Output 19 nM

----------
- target-of-assay: human 11b-hsd-1 (Homo sapiens)
- measurement-description: Inhibition constant Ki of human 11b-hsd-1 (3H-cortisone to 3H-cortisol conversion, HPLC)
- Assay type: biochemical
- applied-conditions: compound at 0.1 μM
Provide the reported inhibition at 0.1 µM of each item.
Write the number in % without appending the unit.

## Input Looking for the measured inhibition at 0.1 µM of O=C(NC1CCCCC1)[C@H]1CCCN1CC(F)(F)F , can you help?
## Output 100

## Input Here is the next compound: CC(C)CN1CCC[C@@H]1C(=O)NC12C3C4C1C1C2C3C41C (stereo partly drawn)
## Output 100

## Input Here is the next compound: O=C(NC12CC3CC(CC(C3)C1)C2)C1COCCN1CC1CCCC1 (stereo not drawn)
## Output 100

## Input Here is the next compound: O=C(NC12CC3CC(CC(C3)C1)C2)[C@H]1CCCN1Cc1ccc(Cl)cc1
## Output 100

## Input Here is the next compound: CCCN1CCC[C@@H]1C(=O)NC1CCC(C)CC1 (stereo partly drawn)
## Output 100

## Input Here is the next compound: CC1(C)CC(NC(=O)C2COCCN2Cc2cccc(C#N)c2)CC(C)(C)C1 (stereo not drawn)
## Output 100

## Input Here is the next compound: CC(C)(O)CN1CCC[C@@H]1C(=O)NC1CCCCC1
## Output 54

## Input Here is the next compound: CN1CCC(CN2C[C@H](O)C[C@@H]2C(=O)NC2CCCCC2)CC1
## Output 0

## Input Here is the next compound: O=C(NC1C2CC3CC(C2)CC1C3)[C@H]1CCCN1C[C@@H]1CCCN1 (stereo partly drawn)
## Output 76
